Recorded values, source paper PMC9967275.

# TARGET_OR_TEST_SYSTEM: cruzain (Trypanosoma cruzi);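 note: at 5 µM compound concentration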
# Sequence (P25779 123-337 limits assumed): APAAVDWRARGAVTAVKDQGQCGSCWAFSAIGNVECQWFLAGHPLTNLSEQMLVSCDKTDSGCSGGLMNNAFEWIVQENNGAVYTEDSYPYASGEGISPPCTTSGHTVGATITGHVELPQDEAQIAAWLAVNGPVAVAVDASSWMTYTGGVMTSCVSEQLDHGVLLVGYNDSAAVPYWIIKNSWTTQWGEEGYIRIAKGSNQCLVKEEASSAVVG
# PROTOCOL_DETAILS: biochemical
# CONDITION_DETAILS: 10’ (pre-incubation); sheet Screening results

{"MOLECULE": "N#CCN(CCCCN1CCN(c2ccc(F)cc2)CC1)C(=O)OCc1ccccc1", "Cruzain Inhibition 10’": "3.2%"}
{"MOLECULE": "CCc1nc2ccccc2n1CC(O)COc1cc(C)ccc1Cl (centres unmarked)", "Cruzain Inhibition 10’": "6%"}
{"MOLECULE": "CNc1nnc(Sc2cnn(-c3ccccc3)c(=O)c2Cl)s1", "Cruzain Inhibition 10’": "9%"}
{"MOLECULE": "O=C(NCCc1c[nH]c2ccccc12)c1cc2ccccc2oc1=O", "Cruzain Inhibition 10’": "14%"}
{"MOLECULE": "O=C(c1n[nH]c2c1CCCC2)N1CCN(Cc2ccc3c(c2)OCO3)CC1", "Cruzain Inhibition 10’": "-3.4%"}
{"MOLECULE": "Nc1c2c(nc3sc4c(c13)CCCC4)CCCC2", "Cruzain Inhibition 10’": "13%"}
{"MOLECULE": "O=C(NC1CC1)c1ccc(N2CCOc3ccc(Cl)cc32)s1", "Cruzain Inhibition 10’": "9%"}
{"MOLECULE": "CNC1C(OC2C(OC3C(O)C(O)C(N=C(N)N)C(O)C3N=C(N)N)OC(C)C2(O)C=O)OC(CO)C(O)C1O (centres unmarked)", "Cruzain Inhibition 10’": "-2.3%"}

* * *

# TARGET_OR_TEST_SYSTEM: TbrCatL (Trypanosoma brucei rhodesiense, UniProt Q95PM0)
# Construct: Conor Caffrey (University of California San Diego)
# Sequence (Q95PM0 entry or part of it): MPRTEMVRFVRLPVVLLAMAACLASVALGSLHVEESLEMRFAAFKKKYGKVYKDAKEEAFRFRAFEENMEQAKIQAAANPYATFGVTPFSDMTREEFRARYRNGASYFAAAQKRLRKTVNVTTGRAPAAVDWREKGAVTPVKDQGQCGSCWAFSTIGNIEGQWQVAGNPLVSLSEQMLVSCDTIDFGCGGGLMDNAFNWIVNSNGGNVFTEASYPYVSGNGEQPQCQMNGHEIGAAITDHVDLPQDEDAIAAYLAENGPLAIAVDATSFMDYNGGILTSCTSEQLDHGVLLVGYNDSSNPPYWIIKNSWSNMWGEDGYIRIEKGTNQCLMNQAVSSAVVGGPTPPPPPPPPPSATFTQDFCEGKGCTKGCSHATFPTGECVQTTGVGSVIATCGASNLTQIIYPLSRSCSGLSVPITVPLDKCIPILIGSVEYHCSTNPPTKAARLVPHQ
# PROTOCOL_DETAILS: TbrCatL enzymatic inhibition assay (cleavage of fluorogenic substrate Z-FR-AMC);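 note: at 5 µM compound concentration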
# Format: biochemical
# CONDITION_DETAILS: 10’ (pre-incubation time); sheet "Screening results"

{"COMPOUND": "CCS(=O)(=O)N(Cc1ccco1)Cc1cc2ccc(C)cc2[nH]c1=O", "UNIT_LABEL": "%", "TbrCatL 10’ Inhibition": 9}
{"COMPOUND": "COc1ccc(-c2nnc3ccc(-c4cccc(C(C)C)c4)cn23)cc1OC", "UNIT_LABEL": "%", "TbrCatL 10’ Inhibition": -27}
{"COMPOUND": "Clc1ccc(-n2cc(COc3ccnc4ccccc34)nn2)cc1", "UNIT_LABEL": "%", "TbrCatL 10’ Inhibition": 11}
{"COMPOUND": "Nc1cccnc1Nc1ccc(Cl)cc1", "UNIT_LABEL": "%", "TbrCatL 10’ Inhibition": 11}
{"COMPOUND": "COc1cc(C2=NCCN2)ccc1-c1cn(-c2cccc(C3=NCCN3)c2)nn1", "UNIT_LABEL": "%", "TbrCatL 10’ Inhibition": 36}
{"COMPOUND": "NC(CC(=O)c1ccc(Cl)cc1Cl)C(Cl)(Cl)Cl (stereo not shown)", "UNIT_LABEL": "%", "TbrCatL 10’ Inhibition": -2}
{"COMPOUND": "Cc1cccc(C(=O)Nc2ccnc(N(C)C3CCN(CC(C)C)CC3)c2)c1", "UNIT_LABEL": "%", "TbrCatL 10’ Inhibition": 7}
{"COMPOUND": "COc1ccc(-c2cnc3ccc(N4CCCC4)nn23)cc1OC", "UNIT_LABEL": "%", "TbrCatL 10’ Inhibition": -1}
{"COMPOUND": "COC(=O)c1cccc2oc(-c3cccc(OC)c3NC(=O)c3cc(-c4ccccc4)on3)nc12", "UNIT_LABEL": "%", "TbrCatL 10’ Inhibition": -5}
{"COMPOUND": "CCc1ccc(S(=O)(=O)Nc2cc(CN3CCN(CCC(C)C)CC3)ccc2C)cc1", "UNIT_LABEL": "%", "TbrCatL 10’ Inhibition": 1}
{"COMPOUND": "Cc1cc(Cl)c(S(=O)(=O)N2CCCC2)cc1OCC(=O)NC1CCCCC1", "UNIT_LABEL": "%", "TbrCatL 10’ Inhibition": 11}
{"COMPOUND": "Cc1ccc(S(=O)(=O)n2cc(-c3ccnc(N)c3)c3cc(Br)cnc32)cc1", "UNIT_LABEL": "%", "TbrCatL 10’ Inhibition": 1.6}
{"COMPOUND": "FC(F)(F)c1cccc(-c2nc3c(NCc4ccncc4)nccc3[nH]2)c1", "UNIT_LABEL": "%", "TbrCatL 10’ Inhibition": 1.3}
{"COMPOUND": "CC1(C)Cc2c(c(N3CCOCC3)nc3snc(Br)c23)CO1", "UNIT_LABEL": "%", "TbrCatL 10’ Inhibition": 25}
{"COMPOUND": "Cc1nc(-c2ccccn2)nc(N2CCC(Cc3ccccc3)C2)c1Cl (stereo not shown)", "UNIT_LABEL": "%", "TbrCatL 10’ Inhibition": -2.3}
{"COMPOUND": "CCCCc1ccc(C(=O)Nc2nccc3ccccc23)nc1", "UNIT_LABEL": "%", "TbrCatL 10’ Inhibition": -2.6}
{"COMPOUND": "c1ccc(Oc2ccc(-c3cncc(-c4ccc5[nH]ccc5c4)n3)cc2)cc1", "UNIT_LABEL": "%", "TbrCatL 10’ Inhibition": -21}
{"COMPOUND": "COc1cc(C2=NCCN2)ccc1-n1cc(-c2cccc(C3=NCCN3)c2)nn1", "UNIT_LABEL": "%", "TbrCatL 10’ Inhibition": 30}
{"COMPOUND": "CCc1ccc([C@@H]2C[C@H](C(F)(F)F)n3ncc(C(=O)NCc4ccc(OC)cc4)c3N2)cc1", "UNIT_LABEL": "%", "TbrCatL 10’ Inhibition": -11}
{"COMPOUND": "CCC(Sc1nc2ccccc2o1)C(=O)Nc1nnc(C)s1 (stereo not shown)", "UNIT_LABEL": "%", "TbrCatL 10’ Inhibition": 5}
{"COMPOUND": "NS(=O)(=O)c1cccc(-c2ccc3ncc(N4CCOCC4)nc3c2)c1", "UNIT_LABEL": "%", "TbrCatL 10’ Inhibition": 14}
{"COMPOUND": "COc1cc(NC(=O)Cc2nn(C)c(=O)c3ccccc23)ccc1Cl", "UNIT_LABEL": "%", "TbrCatL 10’ Inhibition": 1.5}
